Each entry below lists one item and its recorded TGI value.
- Test system: KM12 colon
- PROTOCOL_NOTES: NCI tumour cell line growth inhibition, 48 h
ASSAY_METRIC: TGI

compound=CCN(CC)CCCNc1ccc2nc(C)n3c4ccc(O)cc4c(=O)c1c23 result="17.4 µM"
compound=COc1ccc(/C=C/C(=O)/C=C/c2cc3ccccc3[nH]c2=O)cc1 result="6.95 µM"
compound="O=C1/C(=C\\c2cccc(Oc3ccccc3)c2)SC(c2ccccc2)N1c1ccccc1 (stereo unspecified)" result="> 100 µM"
compound=CC(=N\N)/C(C)=N/N=C(C)/C(C)=N/N result="> 100 µM"
compound=Nc1nonc1-c1nc2cnccc2n1C1CC1 result="> 20.9 µM"
compound=CN(C(=O)Cc1ccccc1)n1cnn(CC(=O)OC(C)(C)C)c1=S result="> 10 µM"
compound=O=C(NCCN1CCOCC1)c1cn2c(ccc3sc4ccccc4c(=O)c32)n1 result="> 100 µM"
compound=Cc1cnc2sn(-c3ccc([N+](=O)[O-])cc3)c(=O)c2c1 result="> 100 µM"
compound="COC12CCC(=O)C=C1c1ccccc1N2C(C)=O (stereo unspecified)" result="> 100 µM"
compound=[O-][N+](=Nc1ccccc1CO)c1ccccc1CO result="> 100 µM"
compound="[N-]=[N+]=NC1OC(=O)C(Cl)=C1N=P(c1ccccc1)(c1ccccc1)c1ccccc1 (stereo unspecified)" result="> 10 µM"
